# credit: patent US20120214862A1

% Inhibition of human Factor 7 mRNA levels values, listed per item
test system: human Factor 7 mRNA; test: Antisense inhibition of human Factor 7 mRNA in HepB3 cells, lipofectin, 50 nM, real-time RT-PCR; type: cell-based; conditions: HepB3 cells; gapmers (5-10-5, 3-14-3, 2-13-5 MOE) targeted to nucleobases 4868 to 4899 of SEQ ID NO: 1
In the oligonucleotide strings, read from the 5' end, every base follows the letter of its sugar. An asterisk marks phosphorothioate; unmarked linkages are phosphodiester. Other units and linkages are bracketed, terminal groups are in braces. A string of capitals states the bases alone. e = 2'-O-(2-methoxyethyl) (MOE); [5mC] = 5-methylcytosine; d = 2'-deoxy (DNA)
reportedProperty: % Inhibition of human Factor 7 mRNA levels

>  <substance>
422145 (antisense eG*e[5mC]*e[5mC]*e[5mC]*eG*dA*dG*dT*dT*d[5mC]*dT*dG*d[5mC]*dA*dG*eG*eA*eG*e[5mC]*eG) [compound 422145]

>  <targetOfAssay>
human Factor 7 mRNA

>  <result>
57%

$$$$
>  <substance>
422140 (antisense eG*eT*eT*e[5mC]*eT*dG*d[5mC]*dA*dG*dG*dA*dG*d[5mC]*dG*dG*e[5mC]*e[5mC]*eT*eA*eA) [compound 422140]

>  <targetOfAssay>
human Factor 7 mRNA

>  <result>
74%

$$$$
>  <substance>
422138 (antisense eT*e[5mC]*eT*eG*e[5mC]*dA*dG*dG*dA*dG*d[5mC]*dG*dG*d[5mC]*d[5mC]*eT*eA*eA*eA*eT) [compound 422138]

>  <targetOfAssay>
human Factor 7 mRNA

>  <result>
70%

$$$$
>  <substance>
422298 (antisense eG*e[5mC]*d[5mC]*d[5mC]*dG*dA*dG*dT*dT*d[5mC]*dT*dG*d[5mC]*dA*dG*eG*eA*eG*e[5mC]*eG) [compound 422298]

>  <targetOfAssay>
human Factor 7 mRNA

>  <result>
62%

$$$$
>  <substance>
422217 (antisense eG*eA*eG*dT*dT*d[5mC]*dT*dG*d[5mC]*dA*dG*dG*dA*dG*d[5mC]*dG*dG*e[5mC]*e[5mC]*eT) [compound 422217]

>  <targetOfAssay>
human Factor 7 mRNA

>  <result>
75%

$$$$
>  <substance>
422142 (antisense eG*eA*eG*eT*eT*d[5mC]*dT*dG*d[5mC]*dA*dG*dG*dA*dG*d[5mC]*eG*eG*e[5mC]*e[5mC]*eT) [compound 422142]

>  <targetOfAssay>
human Factor 7 mRNA

>  <result>
73%

$$$$
>  <substance>
422225 (antisense eA*eG*eG*dA*dG*d[5mC]*d[5mC]*d[5mC]*dG*dA*dG*dT*dT*d[5mC]*dT*dG*d[5mC]*eA*eG*eG) [compound 422225]

>  <targetOfAssay>
human Factor 7 mRNA

>  <result>
56%

$$$$
>  <substance>
422141 (antisense eA*eG*eT*eT*e[5mC]*dT*dG*d[5mC]*dA*dG*dG*dA*dG*d[5mC]*dG*eG*e[5mC]*e[5mC]*eT*eA) [compound 422141]

>  <targetOfAssay>
human Factor 7 mRNA

>  <result>
64%

$$$$
>  <substance>
422300 (antisense eG*eA*dG*d[5mC]*d[5mC]*d[5mC]*dG*dA*dG*dT*dT*d[5mC]*dT*dG*d[5mC]*eA*eG*eG*eA*eG) [compound 422300]

>  <targetOfAssay>
human Factor 7 mRNA

>  <result>
65%

$$$$
>  <substance>
422219 (antisense e[5mC]*e[5mC]*eG*dA*dG*dT*dT*d[5mC]*dT*dG*d[5mC]*dA*dG*dG*dA*dG*d[5mC]*eG*eG*e[5mC]) [compound 422219]

>  <targetOfAssay>
human Factor 7 mRNA

>  <result>
65%

$$$$
>  <substance>
422296 (antisense e[5mC]*e[5mC]*dG*dA*dG*dT*dT*d[5mC]*dT*dG*d[5mC]*dA*dG*dG*dA*eG*e[5mC]*eG*eG*e[5mC]) [compound 422296]

>  <targetOfAssay>
human Factor 7 mRNA

>  <result>
74%

$$$$
